Field: Vd. Provide a value for each of the compounds that follow.
protocol: Volume of distribution at steady state in Sprague-Dawley rat at 1 mg/kg, iv and 3 mg/kg, po administered as cassette dosing
Format: ADME, organism-based
experimental.parameters: in vivo, read-out: Vdss
Numbers only; they are read as L/kg.

# lookup: Vd of `C[C@@H](Oc1nc(-c2cnn(C(F)F)c2)cc2ncsc12)[C@H]1CNC(=O)O1`
1.3

# lookup: Vd of `C[C@@H](Oc1cc(-c2cnn(C)c2)cc2nscc12)[C@H]1CNC(=O)O1`
1.5

# lookup: Vd of `C[C@@H](Oc1nc(-c2cnn(C)c2)cc2nscc12)[C@H]1CNC(=O)C1`
2.4

# lookup: Vd of `C[C@@H](Oc1cc(-c2cnn(C)c2)cc2nscc12)[C@H]1CNC(=O)C1`
2.4

# lookup: Vd of `COc1ccc(-c2cc3ncsc3c(O[C@H](C)[C@H]3CNC(=O)C3)n2)cc1OC`
1.2

* * *

target.entity: Aurora kinase A (Homo sapiens)
Sequence (O14965 whole entry): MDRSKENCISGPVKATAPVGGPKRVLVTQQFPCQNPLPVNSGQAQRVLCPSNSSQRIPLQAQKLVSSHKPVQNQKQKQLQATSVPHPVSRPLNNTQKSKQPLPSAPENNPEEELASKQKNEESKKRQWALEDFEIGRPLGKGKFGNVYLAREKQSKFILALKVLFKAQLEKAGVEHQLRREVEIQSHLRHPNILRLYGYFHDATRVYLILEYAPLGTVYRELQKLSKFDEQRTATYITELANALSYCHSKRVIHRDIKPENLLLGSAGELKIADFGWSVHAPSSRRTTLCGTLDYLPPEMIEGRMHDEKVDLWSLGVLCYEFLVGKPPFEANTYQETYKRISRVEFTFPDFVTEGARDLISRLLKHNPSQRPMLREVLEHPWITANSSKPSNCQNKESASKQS
measured.property: pIC50
As a rule, pIC50 stands for the negative log10 of the concentration, concentration in M.

# lookup: pIC50 of `C[C@@H](Oc1cc(-c2cnn(C)c2)cc2nscc12)[C@H]1CNC(=O)C1`
6.24
